# inhibition annotations
target: Rho-associated protein kinase 2 (Homo sapiens) (UniProt O75116); details: at 0.1 µM;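 note: values are averaged inhibition readings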
Sequence (O75116 whole entry, looked up): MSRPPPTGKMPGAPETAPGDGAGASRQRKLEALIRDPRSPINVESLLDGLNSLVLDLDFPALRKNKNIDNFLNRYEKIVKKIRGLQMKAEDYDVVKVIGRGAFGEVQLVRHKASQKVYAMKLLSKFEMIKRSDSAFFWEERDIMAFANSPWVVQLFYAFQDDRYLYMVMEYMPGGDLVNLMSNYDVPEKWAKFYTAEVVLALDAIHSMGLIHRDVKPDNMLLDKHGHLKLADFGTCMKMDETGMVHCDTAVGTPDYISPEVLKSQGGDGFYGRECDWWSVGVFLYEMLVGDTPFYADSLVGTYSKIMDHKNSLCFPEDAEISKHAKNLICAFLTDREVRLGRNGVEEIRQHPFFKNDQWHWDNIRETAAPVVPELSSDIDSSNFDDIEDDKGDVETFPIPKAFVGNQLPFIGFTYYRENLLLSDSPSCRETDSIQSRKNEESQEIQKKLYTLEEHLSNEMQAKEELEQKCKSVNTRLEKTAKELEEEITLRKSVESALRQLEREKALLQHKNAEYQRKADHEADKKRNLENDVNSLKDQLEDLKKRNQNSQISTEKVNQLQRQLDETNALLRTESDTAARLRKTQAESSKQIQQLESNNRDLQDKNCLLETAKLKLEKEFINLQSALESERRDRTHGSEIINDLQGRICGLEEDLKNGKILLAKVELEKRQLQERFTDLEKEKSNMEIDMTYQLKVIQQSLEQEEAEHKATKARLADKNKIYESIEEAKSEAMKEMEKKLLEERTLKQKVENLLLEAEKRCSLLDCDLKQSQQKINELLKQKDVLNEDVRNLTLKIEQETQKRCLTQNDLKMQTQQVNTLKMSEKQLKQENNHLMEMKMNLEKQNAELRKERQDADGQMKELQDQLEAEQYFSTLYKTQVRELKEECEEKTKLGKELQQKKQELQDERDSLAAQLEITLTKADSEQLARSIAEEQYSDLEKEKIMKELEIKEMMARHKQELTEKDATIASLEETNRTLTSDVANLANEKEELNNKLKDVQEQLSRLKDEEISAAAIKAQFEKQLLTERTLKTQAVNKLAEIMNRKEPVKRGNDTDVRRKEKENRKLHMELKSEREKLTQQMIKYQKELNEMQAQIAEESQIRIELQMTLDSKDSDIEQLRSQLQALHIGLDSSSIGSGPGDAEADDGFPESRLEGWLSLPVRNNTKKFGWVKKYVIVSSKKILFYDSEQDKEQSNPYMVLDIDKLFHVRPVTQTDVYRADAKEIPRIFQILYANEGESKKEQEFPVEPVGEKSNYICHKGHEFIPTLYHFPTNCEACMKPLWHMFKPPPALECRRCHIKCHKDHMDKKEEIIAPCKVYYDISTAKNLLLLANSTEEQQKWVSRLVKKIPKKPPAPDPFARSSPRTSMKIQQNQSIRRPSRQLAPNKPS

Smiles data	inhibition (%)
NC(=O)Cc1ccccc1Oc1nccc(-c2c(-c3ccc(F)cc3)ncn2C2CCNCC2)n1	-0.06
O=C(Nc1n[nH]c2cc(-c3cc(F)ccc3F)ccc12)C1CC1	1.39
NC(=O)c1cc(-c2ccncc2)cc(-c2ccccc2)c1N	3.44
CN(c1ccc(NC(=O)Nc2c(Cl)cccc2Cl)cc1)c1ccnc(Nc2cccc(CS(C)(=O)=O)c2)n1	3.46
c1ccc(Oc2ccc(Nc3ncc(-c4ccccc4)o3)cc2)cc1	4.32

* * *

biological target: Serine/threonine-protein kinase MRCK beta (Homo sapiens); settings: at 1 µM;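 note: averaged inhibition values against MRCK beta, part of the GSK PKIS profiling dataset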
Endpoint: inhibition (%)

Smiles data	Result number
Cc1nnc(-c2ccc(C)c(-c3ccc(C(=O)NCc4ccc(Cl)cc4)cc3)c2)o1	-0.22
O=C(Nc1ccc(Oc2ccc3[nH]c(NC(=O)c4ccccc4)nc3c2)cc1)Nc1cc(C(F)(F)F)ccc1F	-0.22
Fc1ccc(-c2ncn(C3CCNCC3)c2-c2ccnc(Oc3ccc(F)c(F)c3)n2)cc1	-0.35
Cc1ccc(C(=O)NC2CCC2)cc1-c1ccc(C(=O)NCC2CC2)cc1	0.97
O=C(Nc1n[nH]c2nc(-c3ccc(O)cc3)c(Br)cc12)C1CC1	15.5
c1ccc(Oc2ccc(Nc3ncc(-c4ccccc4)o3)cc2)cc1	3.62
CN(C)CCCNc1nccc(-c2c(-c3ccc(F)cc3)nn3cc(C(F)(F)F)ccc23)n1	1.09
Fc1ccc(-c2ncn(C3CCNCC3)c2-c2ccnc(Oc3ccc4c(c3)OCO4)n2)cc1	2.94
CN(C)c1ccc2c(c1)/C(=C/Nc1ccc(S(N)(=O)=O)cc1)C(=O)N2	2.85
C[C@@H](Oc1cc(-n2cnc3ccc(OCC4CCN(C)CC4)cc32)sc1C(N)=O)c1ccccc1Cl	1.35
